B1: tRNA (parent)
chain: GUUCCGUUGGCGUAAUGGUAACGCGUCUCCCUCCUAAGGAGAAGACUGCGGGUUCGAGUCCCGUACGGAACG

variants of: B1; experiment: yeast fitness relative to wild type (ratio to wild type); higher = fitter; tRNA-Arg(CCU), competitive growth, 37 C, YPD
Variants at the floor of the assay were thinned out.
Assay metric: yeast fitness

[
  {
    "Sequence change": "A14G A21G G67A",
    "Assay metric": "yeast fitness",
    "Operator": "=",
    "Test result": 0.63
  },
  {
    "Sequence change": "C5A A45U G48A G56A",
    "Assay metric": "yeast fitness",
    "Operator": "=",
    "Test result": 0.706
  },
  {
    "Sequence change": "C30U G51A C55A",
    "Assay metric": "yeast fitness",
    "Operator": "=",
    "Test result": 0.686
  },
  {
    "Sequence change": "A15U G38C G39A A43C C61U",
    "Assay metric": "yeast fitness",
    "Operator": "≤",
    "Test result": 0.5
  },
  {
    "Sequence change": "U28C A37C G56A U59C",
    "Assay metric": "yeast fitness",
    "Operator": "≤",
    "Test result": 0.5
  },
  {
    "Sequence change": "U7G A40C G67C",
    "Assay metric": "yeast fitness",
    "Operator": "≤",
    "Test result": 0.5
  },
  {
    "Sequence change": "G41C G48C",
    "Assay metric": "yeast fitness",
    "Operator": "=",
    "Test result": 0.813
  },
  {
    "Sequence change": "A20G A42C",
    "Assay metric": "yeast fitness",
    "Operator": "=",
    "Test result": 1.05
  },
  {
    "Sequence change": "U8A A21C A42U G50A",
    "Assay metric": "yeast fitness",
    "Operator": "≤",
    "Test result": 0.5
  },
  {
    "Sequence change": "U8A C29U C34U C49A G67A",
    "Assay metric": "yeast fitness",
    "Operator": "≤",
    "Test result": 0.5
  },
  {
    "Sequence change": "A36U C62U",
    "Assay metric": "yeast fitness",
    "Operator": "=",
    "Test result": 0.645
  },
  {
    "Sequence change": "C11U A37G A57G A70C",
    "Assay metric": "yeast fitness",
    "Operator": "≤",
    "Test result": 0.5
  },
  {
    "Sequence change": "A14U G25C G39C U54G A65U",
    "Assay metric": "yeast fitness",
    "Operator": "≤",
    "Test result": 0.5
  },
  {
    "Sequence change": "C31U C33U C34G A40C A69C",
    "Assay metric": "yeast fitness",
    "Operator": "≤",
    "Test result": 0.5
  },
  {
    "Sequence change": "A15U G67C",
    "Assay metric": "yeast fitness",
    "Operator": "=",
    "Test result": 0.657
  },
  {
    "Sequence change": "U13A C33G A37G",
    "Assay metric": "yeast fitness",
    "Operator": "≤",
    "Test result": 0.5
  },
  {
    "Sequence change": "U13C U59C C66U G67U",
    "Assay metric": "yeast fitness",
    "Operator": "=",
    "Test result": 0.576
  },
  {
    "Sequence change": "U13A C22U C66U",
    "Assay metric": "yeast fitness",
    "Operator": "=",
    "Test result": 0.534
  },
  {
    "Sequence change": "C24G C33G A36C A37C A42C A65U",
    "Assay metric": "yeast fitness",
    "Operator": "≤",
    "Test result": 0.5
  },
  {
    "Sequence change": "U2A G23C C31U",
    "Assay metric": "yeast fitness",
    "Operator": "≤",
    "Test result": 0.5
  },
  {
    "Sequence change": "C5U U16G U35A",
    "Assay metric": "yeast fitness",
    "Operator": "≤",
    "Test result": 0.5
  },
  {
    "Sequence change": "A15G C31G U47G C49G",
    "Assay metric": "yeast fitness",
    "Operator": "=",
    "Test result": 0.545
  },
  {
    "Sequence change": "C27G A42U C55U",
    "Assay metric": "yeast fitness",
    "Operator": "≤",
    "Test result": 0.5
  }
]
